# Percent Effect per entry
test system: Wolbachia pipientis; assay: Anti-Wolbachia Cell-Based Screen; assay type: functional; set-up: scale not given: in the data most compounds retested in dose-response had high values; conditions: 5 µM
Out of some 48,000 compounds screened, about 13,000 (27%) showed an effect of 50% or more. The list shows a part of the results.
Field format: number, assumed %, no unit text.

Molecule	Val
CN(C(=O)CN1CCC(c2cc3ccccc3[nH]2)CC1)C1CC1	-16.32
COCCCSc1ccc(NC(=O)Nc2cn[nH]c2)cc1	3.134
OC1CCN(c2nc(-c3ccccc3)no2)CC1	-0.7688
O=c1cc(CNS(=O)(=O)C2CC2)nc2n1CCCNC2	10.88
CN(C(=O)CN1CCC(c2cc3ccccc3[nH]2)CC1)C(C)(C)C#N	-0.1259

Ask: Suppose we examine the molecule Cc1cccc(N2CCN(c3ccn4c(=O)[nH]nc4n3)CC2)c1C ; what Percent Effect value has been reported?
Result: -10.93

Values from ChEMBL document CHEMBL3988442
